test: Cytotoxicity against human HBL-100 cells assessed as reduction in cell viability measured after 48 hrs by MTT assay; assay type: toxicity, cell-based
Exercise: for every item that follows, state its recorded IC50 at 48 h.

Please go through the list and note IC50 at 48 h for each compound.
1. CCn1c2ccccc2c2cc(-c3nc(-c4ccc(N5CCN(C)CC5)cc4)c(-c4ccc(N5CCN(C)CC5)cc4)n3-c3ccc(OC)cc3)ccc21
2. CCn1c2ccccc2c2cc(-c3nc(-c4ccc(N5CCN(C)CC5)cc4)c(-c4ccc(N5CCN(C)CC5)cc4)n3-c3ccc(OCCOCCOC4(C)O[C@H]5O[C@H](CO)[C@@H](O)[C@H](O)[C@H]5O4)cc3)ccc21 (single isomer, unassigned)

Response line:
11.2 µM
> 100 µM

###

assay: Binding affinity to G-rich NRAS RNA (unknown origin) assessed as binding constant by SPR analysis
Exercise: for every item that follows, state its recorded pKd.
Give bare numbers, as −log10 of the molar value.

For each of the compounds below, state pKd.
1. CCn1c2ccccc2c2cc(-c3nc(-c4ccc(N5CCN(C)CC5)cc4)c(-c4ccc(N5CCN(Cc6cn(CCOCCO)nn6)CC5)cc4)[nH]3)ccc21
2. CCn1c2ccccc2c2cc(-c3nc(-c4ccc(N5CCN(C)CC5)cc4)c(-c4ccc(N5CCN(C)CC5)cc4)n3-c3ccc(OCCOCCO)cc3)ccc21
3. CCn1c2ccccc2c2cc(-c3nc(-c4ccc(N5CCN(C)CC5)cc4)c(-c4ccc(N5CCN(Cc6cn(CCOCCO[C@@H]7O[C@H](CO)[C@@H](O)[C@H](O)[C@H]7O)nn6)CC5)cc4)[nH]3)ccc21 (single isomer, unassigned)
4. CCn1c2ccccc2c2cc(-c3nc(-c4ccc(N5CCN(C)CC5)cc4)c(-c4ccc(N5CCN(C)CC5)cc4)n3-c3ccc(OCCOCCO[C@@H]4O[C@H](CO)[C@@H](O)[C@H](O)[C@H]4N)cc3)ccc21 (single isomer, unassigned)

Response line:
[4.84, 4.80, 4.93, 5.24]

Prompt line: // returns reported pKd for input CCn1c2ccccc2c2cc(-c3nc(-c4ccc(N5CCN(C)CC5)cc4)c(-c4ccc(N5CCN(C)CC5)cc4)n3-c3ccc(OCCOCCO[C@@H]4O[C@H](CO)[C@@H](O)[C@H](O)[C@H]4NC(=O)C(F)(F)F)cc3)ccc21 (single isomer, unassigned)
Response line: 4.79

###

test: Binding affinity to G-rich KRAS DNA (unknown origin) assessed as binding constant by SPR analysis
What Kd was measured for each of the following?

{"columns": ["compound", "property.measured", "test.value"],
 "data": [
  ["CCn1c2ccccc2c2cc(-c3nc(-c4ccc(N5CCN(C)CC5)cc4)c(-c4ccc(N5CCN(Cc6cn(CCOCCO[C@@H]7O[C@H](COC(C)=O)[C@@H](OC(C)=O)[C@H](OC(C)=O)[C@H]7OC(C)=O)nn6)CC5)cc4)[nH]3)ccc21 (single isomer, unassigned)", "Kd", "17.2 µM"],
  ["CCn1c2ccccc2c2cc(-c3nc(-c4ccc(N5CCN(C)CC5)cc4)c(-c4ccc(N5CCN(C)CC5)cc4)n3-c3ccc(OCCCO[C@@H]4O[C@H](CO)[C@@H](O)[C@H](O)[C@H]4O)cc3)ccc21 (single isomer, unassigned)", "Kd", "15 µM"],
  ["CCn1c2ccccc2c2cc(-c3nc(-c4ccc(N5CCN(C)CC5)cc4)c(-c4ccc(N5CCN(C)CC5)cc4)n3-c3ccc(OCCOCCO)cc3)ccc21", "Kd", "8.2 µM"]
]}

Continue with the next compound.
Prompt line: Endpoint output: Kd of CCn1c2ccccc2c2cc(-c3nc(-c4ccc(N5CCN(C)CC5)cc4)c(-c4ccc(N5CCN(C)CC5)cc4)n3-c3ccc(OCCOCCOC4(C)O[C@H]5O[C@H](COC(C)=O)[C@@H](OC(C)=O)[C@H](OC(C)=O)[C@H]5O4)cc3)ccc21 (single isomer, unassigned) . Value?
Response line: 12.7 µM
